Assay Info: Pharmacokinetics of HIV protease inhibitors in rats, alone vs. in combination with ritonavir
Type: in vivo
Measurement Context: male, Sprague-Dawley, rat, plasma, po, 10 mg/kg, oral gavage 10 mg/kg, compound administered as a single agent, plasma, read-out: Cmax
Readout Label: Cmax (ng/mL)

P. Cc1c(O)cccc1C(=O)NC(CSc1ccccc1)C(O)CN1CC2CCCCC2CC1C(=O)NC(C)(C)C (centres unmarked) [AG1343]
Q. CC(C)[C@H](NC(=O)N(C)Cc1ccccn1)C(=O)N[C@@H](Cc1ccccc1)[C@H](O)[C@H](O)[C@H](Cc1ccccc1)NC(=O)[C@@H](NC(=O)N(C)Cc1ccccn1)C(C)C [Compound A-77003]
Inquiry: Please state the entry with greater Cmax among P and Q . To answer, give the label that identifies your chosen option.
Reply text: P
(P: 400 ng/mL, Q: 70 ng/mL)

---

Assay Info: Pharmacokinetics of HIV protease inhibitors in rats, alone vs. in combination with ritonavir
Assay type: in vivo
Measurement Context: male, Sprague-Dawley, rat, in vivo, po, 10 mg/kg, oral gavage 10 mg/kg, compound administered as a single agent, plasma, read-out: Tmax
Readout Label: Tmax (min)
Respond with the bare value in min.

Record CC(C)CN(CC(O)C(Cc1ccccc1)NC(=O)OC1CCOC1)S(=O)(=O)c1ccc(N)cc1 (stereo not shown) [VX-478] , field Tmax: 25.2

---

Assay Info: Pharmacokinetics of clarithromycin in humans, alone vs. in combination with ritonavir
Assay type: in vivo
Measurement Context: oral; healthy human volunteers, 500 mg every 12 hours, single agent, day four of dosing; plasma
Readout Label: Cmax (ng/mL)
Give your result in ng/mL as a bare value.

The reported value for `CC[C@H]1OC(=O)[C@H](C)[C@@H](O[C@H]2C[C@@](C)(OC)[C@@H](O)[C@H](C)O2)[C@H](C)[C@@H](O[C@@H]2O[C@H](C)C[C@H](N(C)C)[C@H]2O)[C@](C)(OC)C[C@@H](C)C(=O)[C@H](C)[C@@H](O)[C@]1(C)O` in terms of Cmax is 3930

---

Assay Info: Pharmacokinetics of HIV protease inhibitors in rats, alone vs. in combination with ritonavir
Format: in vivo
Measurement Context: male, Sprague-Dawley, rat, in vivo, po, 10 mg/kg, oral gavage 10 mg/kg, dosed in combination with ritonavir 10 mg/kg, plasma, read-out: Cmax
Readout Label: Cmax (ng/mL)
Unit ng/mL implied. Number only.

Recorded Cmax (compound CC(C)CN(CC(O)C(Cc1ccccc1)NC(=O)OC1CCOC1)S(=O)(=O)c1ccc(N)cc1 (stereo not shown) ): 2880

---

Assay Info: Pharmacokinetics of HIV protease inhibitors in rats, alone vs. in combination with ritonavir
Format: in vivo
Measurement Context: male, Sprague-Dawley, rat, in vivo, po, 10 mg/kg, oral gavage 10 mg/kg, dosed in combination with ritonavir 10 mg/kg, plasma, read-out: Tmax
Readout Label: Tmax (h)
Kindly provide the numeric value in h only, without the unit symbol.

Lab note: CC(C)CN(CC(O)C(Cc1ccccc1)NC(=O)OC1CCOC1)S(=O)(=O)c1ccc(N)cc1 (stereo not shown) gave Tmax of 1.5

---

Assay Info: Pharmacokinetics of HIV protease inhibitors in rats, alone vs. in combination with ritonavir
Assay type: in vivo
Measurement Context: male, Sprague-Dawley, rat, in vivo, po, 10 mg/kg, oral gavage 10 mg/kg, compound administered as a single agent, plasma, read-out: AUC (0-8 h)
Readout Label: AUC(0-t) (ng·h/mL)
Write the number in ng·h/mL without appending the unit.

Consider CC(C)CN(CC(O)C(Cc1ccccc1)NC(=O)OC1CCOC1)S(=O)(=O)c1ccc(N)cc1 (stereo not shown) . Its measured AUC(0-t) is 1690
